# measuredOn: Axl (Homo sapiens, UniProt P30530)
# Construct: endogenous in cells; host or cells: HeLa cells
# Sequence (P30530 26-894): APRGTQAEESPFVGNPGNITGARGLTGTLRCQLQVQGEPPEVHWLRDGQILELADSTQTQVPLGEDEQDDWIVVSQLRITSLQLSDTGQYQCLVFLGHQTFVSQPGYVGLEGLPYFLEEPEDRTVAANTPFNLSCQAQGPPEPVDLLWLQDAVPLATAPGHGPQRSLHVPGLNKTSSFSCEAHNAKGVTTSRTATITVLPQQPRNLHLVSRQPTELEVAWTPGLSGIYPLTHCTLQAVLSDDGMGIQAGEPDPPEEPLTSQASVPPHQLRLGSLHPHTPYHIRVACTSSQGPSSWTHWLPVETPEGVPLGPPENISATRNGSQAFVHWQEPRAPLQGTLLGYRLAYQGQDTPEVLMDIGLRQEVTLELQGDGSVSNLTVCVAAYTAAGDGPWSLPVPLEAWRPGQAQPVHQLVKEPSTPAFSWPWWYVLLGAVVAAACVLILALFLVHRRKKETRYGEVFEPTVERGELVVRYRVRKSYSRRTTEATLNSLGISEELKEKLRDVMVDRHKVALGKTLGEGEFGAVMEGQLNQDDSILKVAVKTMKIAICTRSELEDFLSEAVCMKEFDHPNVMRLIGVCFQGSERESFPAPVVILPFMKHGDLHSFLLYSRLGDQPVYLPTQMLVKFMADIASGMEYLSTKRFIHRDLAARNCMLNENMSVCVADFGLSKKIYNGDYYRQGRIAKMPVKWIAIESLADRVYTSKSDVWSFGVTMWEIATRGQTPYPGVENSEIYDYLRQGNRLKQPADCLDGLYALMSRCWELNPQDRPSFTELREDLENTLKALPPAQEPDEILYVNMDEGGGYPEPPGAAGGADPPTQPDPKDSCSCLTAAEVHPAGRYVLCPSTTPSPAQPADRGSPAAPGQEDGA
# runDescription: Phospho-Akt in-cell Western assay (inhibition of Axl activity)
# Format: cell-based
# experimentalConditions: inhibition of Axl activity, Table 1
quantity: IC50

[
  {
    "smilesStructure": "Cc1ccc(C(=O)n2nc(Nc3ccc4c(c3)OCCO4)nc2N)cc1C",
    "measuredOn": "Axl (Homo sapiens, UniProt P30530)",
    "quantity": "IC50",
    "endpointValue": "1 to 10 µM"
  },
  {
    "smilesStructure": "COc1ccccc1C(=O)n1nc(Nc2ccc3c(c2)OCCO3)nc1N",
    "measuredOn": "Axl (Homo sapiens, UniProt P30530)",
    "quantity": "IC50",
    "endpointValue": "> 20 µM"
  },
  {
    "smilesStructure": "CC(C)Oc1ccc(C(=O)n2nc(Nc3ccc(N4CCOCC4)cc3)nc2N)cc1",
    "measuredOn": "Axl (Homo sapiens, UniProt P30530)",
    "quantity": "IC50",
    "endpointValue": "< 1 µM"
  }
]

Exercise: Query (compound): Cc1ccc(C(=O)n2nc(Nc3ccc(F)cc3)nc2N)cc1 ; field requested: IC50
Key: 10 to 20 µM

Exercise: What do you get for CC(=O)Oc1ccc(C(=O)n2nc(Nc3ccc4c(c3)OCCO4)nc2N)cc1 ?
Key: 1 to 10 µM

----------
# measuredOn: Axl (Homo sapiens)
# Construct: endogenous in cells; host or cells: HeLa cells
# runDescription: Phospho-Akt in-cell Western assay (inhibition of Axl activity)
# Format: cell-based
# experimentalConditions: Table 3; Hela cells, Axl antibody cross-linking stimulation, phospho-Akt chemiluminescence
// IC50 lookup, one value per entry

Examples from the recorded data:
[
  {
    "molecule": "Nc1nc(Nc2ccc(OCCN3CCCC3)cc2)nn1C(=O)c1ccc2ncsc2c1 [compound 271]",
    "IC50": "1000 to 10000 nM"
  },
  {
    "molecule": "COc1cc(Nc2nc(N)n(C(=O)c3ccc4cc[nH]c4c3)n2)ccc1OCCN1CCCC1 [compound 318]",
    "IC50": "< 1000 nM"
  },
  {
    "molecule": "CC(C)Oc1cncc(C(=O)n2nc(Nc3ccc(OCCN4CCOCC4)cc3)nc2N)c1 [compound 171]",
    "IC50": "1000 to 10000 nM"
  },
  {
    "molecule": "Cc1ccsc1C(=O)n1nc(Nc2ccc(OCCN3CCCC3)cc2)nc1N [compound 283]",
    "IC50": "< 1000 nM"
  },
  {
    "molecule": "Nc1nc(Nc2ccc(OCCN3CCCC3)cc2)nn1C(=O)C1CC2CCC1C2 (centres unmarked) [compound 200]",
    "IC50": "> 20000 nM"
  }
]

Exercise: Requested read-out IC50, target or system Axl (Homo sapiens), entry CC1(C)Oc2ccc(C(=O)n3nc(Nc4ccc(N5CCCC5)cc4)nc3N)cc2NC1=O [compound 295]
Key: 1000 to 10000 nM

Exercise: And Nc1nc(Nc2ccc(OCCN3CCCCCC3)cc2)nn1C(=O)c1ccc2cc[nH]c2c1 [compound 323] ?
Key: < 1000 nM

Exercise: Next entry: CC1(C)Oc2ccc(C(=O)n3nc(Nc4ccc(OCCN5CCCCC5)cc4)nc3N)cc2NC1=O [compound 78]
Key: < 1000 nM
